Tested on: K penumoniae H 521
PROCEDURE TEXT: Antibacterial activity (MIC) against MDR Gram negative strains
Assay type: cell-based
STUDY CONDITIONS: Table 4; K penumoniae H 521, KPC ESBL, MDR; read-out: MIC
MIC strictly less than 1 µg/mL = met. Otherwise not met.

Answer whether the compound O=C(NNC(=O)[C@H]1CC[C@@H]2CN1C(=O)N2OS(=O)(=O)O)C1CCCNC1 (mixture of isomers) has MIC strictly less than 1 µg/mL
met

MIC under 1 µg/mL? Item: CC(C)(O/N=C(\C(=O)N[C@@H]1C(=O)N2C(C(=O)[O-])=C(C[n+]3ccccc3)CS[C@H]12)c1csc(N)n1)C(=O)O [Ceftazidime, reference compound]
not met

Dear reviewer, please state whether O=C(NNC(=O)[C@H]1CC[C@@H]2CN1C(=O)N2OS(=O)(=O)O)[C@@H]1CCCCN1 (mixture of isomers) has MIC strictly beneath 1 µg/mL.
met

Take the compound NCC(=O)NNC(=O)[C@H]1CC[C@@H]2CN1C(=O)N2OS(=O)(=O)O (relative stereo) and say whether its MIC is less than 1 µg/mL.
not met

State whether 1 µg/mL exceeds MIC recorded for C[C@H]1[C@H](NC(=O)/C(=N\OC(C)(C)C(=O)O)c2csc(N)n2)C(=O)N1S(=O)(=O)O [Aztreonam, reference compound] .
not met

Threshold test, MIC < 1 µg/mL: N[C@@H]1CN[C@H](C(=O)NNC(=O)[C@H]2CC[C@@H]3CN2C(=O)N3OS(=O)(=O)O)C1 (mixture of isomers)
not met

Is 1 µg/mL strictly greater than the compound's reported MIC? compound: O=C(O)c1cn(C2CC2)c2cc(N3CCNCC3)c(F)cc2c1=O [Ciprofloxacin, reference compound]
not met

Field: below-cutoff. Rule: recorded MIC strictly less than 1 µg/mL. Subject: O=C(NNC(=O)[C@H]1CCCN1)[C@H]1CC[C@@H]2CN1C(=O)N2OS(=O)(=O)O (mixture of isomers)
not met

Is it true that MIC reported for N#CCC(=O)NNC(=O)[C@@H]1CC[C@@H]2CN1C(=O)N2OS(=O)(=O)[O-].[Na+] is less than 1 µg/mL?
not met

Find out if reported MIC for O=C(NNC(=O)[C@H]1CC[C@@H]2CN1C(=O)N2OS(=O)(=O)O)C1CNCCN1 (mixture of isomers) is less than 1 µg/mL
not met

====

Test system: E. coli M 50
PROCEDURE TEXT: Antibacterial activity (MIC), agar dilution per CLSI
Type: cell-based
STUDY CONDITIONS: Table 3; E. coli M 50 expressing ESBL; agar dilution
QUANTITY: MIC

Which measured MIC belongs to O=C(CC[C@@H]1CCCN1)NNC(=O)[C@H]1CC[C@@H]2CN1C(=O)N2OS(=O)(=O)O (relative stereo) [Example 31] , tested on E. coli M 50?
1 µg/mL

Quick check: MIC on E. coli M 50, item NC(=O)c1cccc(C(=O)NNC(=O)C2CCC3CN2C(=O)N3OS(=O)(=O)[O-])n1.[Na+] (centres unmarked) [Example 46] ?
64 µg/mL

Kindly state the measured MIC obtained for NC(=O)N1C[C@@H](F)C[C@H]1C(=O)NNC(=O)C1CCC2CN1C(=O)N2OS(=O)(=O)[O-].[Na+] (relative stereo) [Example 49] with E. coli M 50.
16 µg/mL

E. coli M 50 / MIC / CC(C)(C#N)C(=O)NNC(=O)[C@H]1CC[C@@H]2CN1C(=O)N2OS(=O)(=O)[O-].[Na+] (relative stereo) [Example 51] : value?
16 µg/mL

E. coli M 50 / MIC / NC(=O)N1CCC[C@H]1C(=O)NNC(=O)[C@H]1CC[C@@H]2CN1C(=O)N2OS(=O)(=O)[O-].[Na+] (relative stereo) [Example 48] : value?
8 µg/mL

# value lookup — system E. coli M 50, readout MIC, item NC(C(=O)NNC(=O)[C@H]1CC[C@@H]2CN1C(=O)N2OS(=O)(=O)O)c1ccccn1 (mixture of isomers) [Example 41]
4 µg/mL

What measured MIC is associated with CS(=O)(=O)N1CCC[C@H]1C(=O)NNC(=O)[C@H]1CC[C@@H]2CN1C(=O)N2OS(=O)(=O)[O-].[Na+] (relative stereo) [Example 50] on E. coli M 50?
16 µg/mL

State its MIC on E. coli M 50: N[C@@H](CO)C(=O)NNC(=O)[C@H]1CC[C@@H]2CN1C(=O)N2OS(=O)(=O)O (relative stereo) [Example 10]
8 µg/mL

Field: MIC (E. coli M 50). Entry: O=C(CN1CCOCC1)NNC(=O)C1CCC2CN1C(=O)N2OS(=O)(=O)[O-].[Na+] (centres unmarked) [Example 45]
8 µg/mL

Notebook: pull reported MIC for E. coli M 50, entry NC(C(=O)NNC(=O)[C@H]1CC[C@@H]2CN1C(=O)N2OS(=O)(=O)O)c1ccccc1 (mixture of isomers) [Example 20]
2 µg/mL

I'm curious: which MIC was measured for CC(C)(C)OC(=O)NNC(=O)[C@H]1CC[C@@H]2CN1C(=O)N2OS(=O)(=O)[O-].[Na+] (relative stereo) [Example 44] tested on E. coli M 50?
32 µg/mL

Tell me reported MIC for O=C(NNC(=O)N1CCOCC1)[C@H]1CC[C@@H]2CN1C(=O)N2OS(=O)(=O)O.[Na] (relative stereo) [Example 47] , tested with E. coli M 50.
64 µg/mL

Query for E. coli M 50: what MIC does the record show for O=C1CC[C@@H](C(=O)NNC(=O)[C@H]2CC[C@@H]3CN2C(=O)N3OS(=O)(=O)[O-])N1.[Na+] (relative stereo) [Example 52] ?
0.5 µg/mL

Hi! What's the reported MIC for NC(=O)CCC(N)C(=O)NNC(=O)[C@H]1CC[C@@H]2CN1C(=O)N2OS(=O)(=O)O (relative stereo) [Example 24] on E. coli M 50?
1 µg/mL

====

Test system: P. aeruginosa Ps 32
PROCEDURE TEXT: Antibacterial activity (MIC) against MDR Gram negative strains
Type: cell-based
STUDY CONDITIONS: Pseudomonas aeruginosa, PS32; Table 5; P. aeruginosa Ps 32; read-out: MIC
QUANTITY: MIC (µg/mL)
The response must be a number in µg/mL with no trailing unit.

Entry O=C(NNC(=O)[C@@H]1CC[C@@H]2CN1C(=O)N2OS(=O)(=O)O)[C@@H]1CCNC1 : reported MIC = ?
4

Given the compound C[C@H]1[C@H](NC(=O)/C(=N\OC(C)(C)C(=O)O)c2csc(N)n2)C(=O)N1S(=O)(=O)O [Aztreonam, reference compound] , what is its reported MIC?
8

Report MIC for N[C@@H]1CN[C@H](C(=O)NNC(=O)[C@H]2CC[C@@H]3CN2C(=O)N3OS(=O)(=O)O)C1 (mixture of isomers) please.
32

====

Please provide measured MIC for the entries that follow.
System: E. coli NCTC 13351
PROCEDURE TEXT: Antibacterial activity (MIC), agar dilution per CLSI
Assay type: cell-based
STUDY CONDITIONS: Escherichia coli, NCTC13351, Table 3, E. coli NCTC 13351 expressing ESBL, 16-20 hours, 35±2° C., read-out: MIC
Just the number in µg/mL, nothing appended.

What MIC value was documented for this compound, O=C(CCC1CCCCN1)NNC(=O)[C@H]1CC[C@@H]2CN1C(=O)N2OS(=O)(=O)O (mixture of isomers) ?
2

I have this compound here, CC(N)CC(=O)NNC(=O)[C@H]1CC[C@@H]2CN1C(=O)N2OS(=O)(=O)O (mixture of isomers) , and I need its recorded MIC.
1

// query MIC value for entry O=C(NNC(=O)N1CCCC1)[C@H]1CC[C@@H]2CN1C(=O)N2OS(=O)(=O)O (relative stereo)
32

Quick one: MIC of N[C@@H]1CN[C@H](C(=O)NNC(=O)[C@H]2CC[C@@H]3CN2C(=O)N3OS(=O)(=O)O)C1 (mixture of isomers) ?
1

====

System: E. coli NCTC 13351
PROCEDURE TEXT: Antibacterial activity (MIC), agar dilution per CLSI
Format: cell-based
STUDY CONDITIONS: Escherichia coli, NCTC13351, Table 3, E. coli NCTC 13351 expressing ESBL, 16-20 hours, 35±2° C., read-out: MIC
Description: The biological activity of representative compounds according to the invention against various bacterial strains was investigated. In a typical study, overnight grown bacterial cultures were diluted appropriately and inoculated on the agar media containing doubling dilutions of the test compounds. Observation for growth or no growth was performed after 16-20 hours of incubation at 35±2° C. in ambient air. […]
QUANTITY: MIC (µg/mL)
Only the number, expressed in µg/mL, is required.

Fill in: MIC of NCCCCC(=O)NNC(=O)[C@H]1CC[C@@H]2CN1C(=O)N2OS(=O)(=O)O (relative stereo) is ___
1

Given the entry O=C(NNC(=O)[C@H]1CC[C@@H]2CN1C(=O)N2OS(=O)(=O)O)C1CCNC1 (mixture of isomers) , report its measured MIC.
0.5

Could you share which MIC value was measured for O=C(NNC(=O)[C@H]1CCCN1)[C@H]1CC[C@@H]2CN1C(=O)N2OS(=O)(=O)O (mixture of isomers) ?
16

Data request, read-out MIC, for NCCCC[C@H](N)C(=O)NNC(=O)[C@H]1CC[C@@H]2CN1C(=O)N2OS(=O)(=O)O (mixture of isomers)
1

Entry O=C(NNC(=O)[C@H]1CC[C@@H]2CN1C(=O)N2OS(=O)(=O)O)[C@@H]1CCCCN1 (mixture of isomers) has what MIC?
0.5

Record request: MIC value, item N=C(N)N[C@@H]1CN[C@H](C(=O)NNC(=O)[C@H]2CC[C@@H]3CN2C(=O)N3OS(=O)(=O)O)C1 (mixture of isomers)
1
